Target: extracellular domain of the p75 receptor (Homo sapiens)
Construct: purchased Chiron Corporation, Emeryville, Calif; (originally); also commercially available from Austral Biologicals, Inc. (San Diego, Calif.)
Sequence (P01138 122-241): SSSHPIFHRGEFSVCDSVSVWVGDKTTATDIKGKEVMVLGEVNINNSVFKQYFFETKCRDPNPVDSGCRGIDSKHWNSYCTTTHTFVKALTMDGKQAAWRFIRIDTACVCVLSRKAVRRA
Assay: inhibition of ^125 I-NGF binding to the extracellular domain of the p75 receptor (truncated form, residues 1-222, microtiter plate)
Details: 2 nM ^125 I-NGF, 2 hours at room temperature; read-out: Concentration (IC50, nM): inhibition of ^125 I-NGF binding to the extracellular domain of the p75 receptor
Labelling field: enter satisfied if recorded IC50 is less than 1000 nM. Enter not satisfied if it equals or exceeds that cut-off.

Answered examples (2):
>>> class_label("COc1ccc(C(=O)Nc2ccc3c(c2)c(=O)n2nc(C(=O)O)cc2n3C)cc1")
"not satisfied"
>>> class_label("Cc1ccc(C(=O)Nc2ccc3c(c2)c(=O)n2nc(C(=O)O)cc2n3C)cc1 [Example 7]")
"not satisfied"

Please examine the following record next.
Please let me know if Cn1c2ccc(NC(=O)c3ccc(-c4ccccc4)cc3)cc2c(=O)n2nc(C(=O)O)cc12 shows IC50 below 1000 nM. satisfied

---

Molecular target: extracellular domain of the p75 receptor (Homo sapiens)
Construct: purchased Chiron Corporation, Emeryville, Calif; (originally); also commercially available from Austral Biologicals, Inc. (San Diego, Calif.)
Test: inhibition of ^125 I-NGF binding to the extracellular domain of the p75 receptor (truncated form, residues 1-222, microtiter plate)
Conditions: 2 nM ^125 I-NGF, 2 hours at room temperature; read-out: Concentration (IC50, nM): inhibition of ^125 I-NGF binding to the extracellular domain of the p75 receptor
EXPERIMENTAL ENDPOINT: IC50 (nM)
// note: answer is a bare numeric in nM

The examples below pair each entry with its known result.
>>> val("Cc1cccc(C(=O)Nc2ccc3c(c2)c(=O)n2nc(C(=O)O)cc2n3C)c1")
748
>>> val("Nc1ccc2[nH]c3cc(C(=O)O)nn3c(=O)c2c1")
338
>>> val("Cn1c2ccc(N)cc2c(=O)n2nc(C(=O)O)cc12")
1900

Proceeding to the next compound to report its IC50.
Please report the recorded IC50 for Cn1c2ccc(NC(=O)C34CC5CC(CC(C5)C3)C4)cc2c(=O)n2nc(C(=O)O)cc12 . 2230

---

Target: extracellular domain of the p75 receptor (Homo sapiens)
Construct: purchased Chiron Corporation, Emeryville, Calif; (originally); also commercially available from Austral Biologicals, Inc. (San Diego, Calif.)
Test: inhibition of ^125 I-NGF binding to the extracellular domain of the p75 receptor (truncated form, residues 1-222, microtiter plate)
Conditions: 2 nM ^125 I-NGF, 2 hours at room temperature; read-out: Concentration (IC50, nM): inhibition of ^125 I-NGF binding to the extracellular domain of the p75 receptor
Attribute: IC50
Number only, in nM; omit the unit.

Study these solved cases before continuing.
>>> val("Cn1c2ccc(NC(=O)CC(=O)O)cc2c(=O)n2nc(C(=O)O)cc12")
1150
>>> val("Cn1c2ccc(NC(=O)c3ccc([N+](=O)[O-])cc3)cc2c(=O)n2nc(C(=O)O)cc12")
229

// next entry
Looking for the measured IC50 of CC(=O)Nc1ccc2c(c1)c(=O)n1nc(C(=O)O)cc1n2C , can you help? 1700
